- Test system: human rhabdosarcoma cells
- protocol description: pRB quantification, same procedure, rhabdosarcoma cells
- Assay type: cell-based
- assay setup: Table 9, in association with SiRNA Integrin alpha 3+RGDSPC+SiRNA Integrin beta 1+SiRNA Syndecan 1 (SEQ ID NO: 31, 32, 164 to 187)
measured parameter: pRB
One number for each entry.

The following sequences have reported results that may help.
[[record]]
chain = "WWFWGKASSVPTELSPISTLYKDENEKVVLKYHYDMVVEGSGSR (Non-cyclic GFR-binding peptide) [SEQ ID NO: 170]"
quantitative_result = 7

[[record]]
chain = "CVPTEESNITMQIMRIKPHQGQHIGEMSFL (Non-cyclic GFR-binding peptide) [SEQ ID NO: 177]"
quantitative_result = 8


Batch request: pRB per item, same order as input.
1. CAAPASSSVPARLSPISILYIDAANNVVYKQYEDMVVE (Non-cyclic GFR-binding peptide) [SEQ ID NO: 182]
2. CPARLSPISLLYIDAANNVVYKQYEDM (Non-cyclic GFR-binding peptide) [SEQ ID NO: 184]

## Output
8
11

====

- Test system: MG63 cells
- protocol description: pRB phosphorylation level, immunofluorescence staining quantified with ImageJ, osteosarcoma cells
- Type: cell-based, human
- assay setup: Table 4; MG63 cells; cyclic GFR-binding peptide in association with SiRNA Integrin alpha 3 and SiRNA Integrin beta 1; 400 ng/mL; 24 hours
Where no end group is shown, it is not given here.
Please go through the items and note down their pRB (%).
One number for each entry, in %.

The following sequences have reported results that may help.
[[record]]
chain = "TQVAARPVQTRKIDDMGVPTKKATVAAEDHDKGVVTY (not fully specified; also: cyclic peptide) [SEQ ID NO: 38217]"
quantitative_result = 9

[[record]]
chain = "VPTGGEPLTTLYYNDKQQIIEQLSNGGEHSDDMGVPT (also: cyclic peptide) [SEQ ID NO: 38215]"
quantitative_result = 16

[[record]]
chain = "VPTMMSNITTQIMRIKPHQGQHIGEMSMMQHNDEYDKVV (also: cyclic peptide) [SEQ ID NO: 38212]"
quantitative_result = 14

[[record]]
chain = "VPEAASSLSMLFFEIVRKKPIFLKVYPAATVEDKGVVTY (not fully specified; also: cyclic peptide) [SEQ ID NO: 38201]"
quantitative_result = 19

[[record]]
chain = "VPTVVSAISTLYLRIKPHQGQHLKNYQVVVVENDKQQII (also: cyclic peptide) [SEQ ID NO: 38202]"
quantitative_result = 9


Batch request: pRB (%) per item, same order as input.
1. VPTAAEPISMLYLDEYDKVVKFKYEAAAVSNDKQQII (also: cyclic peptide) [SEQ ID NO: 38206]
2. VPTAASAISILYLDAANNVVLKNYQAAVVEDKGVVTY (also: cyclic peptide) [SEQ ID NO: 38200]
3. APVAAKPLSMLYVDKGVVTYDHHKDAAVEEDEYDKVV (also: cyclic, ring not given here) [SEQ ID NO: 38209]
4. VPTSSSPISTLYIDKGVVTYLKYHYSSVAEDEYDKVV (not fully specified; also: cyclic peptide) [SEQ ID NO: 38205]
5. SRVLLRPVQMRKIDKGVVTYKKATVLLEEHDKGVVTY (not fully specified; also: cyclic peptide) [SEQ ID NO: 38216]
6. APTLLNAISMLYFNDKQQIILKKYRLLVVRNDKQQII (also: cyclic, ring not given here) [SEQ ID NO: 38203]
7. SRVAARSVKMAKVGGGGGGGKEVQVAAEEHGGGGGG (not fully specified; also: cyclic peptide) [SEQ ID NO: 38213]

## Output
8
17
11
16
11
12
21

Batch request: pRB (%) per item, same order as input.
1. APTGGSATSMLYYDKGVVTYLRKHRGGVVKDKGVVTY (also: cyclic, ring not given here) [SEQ ID NO: 38204]
2. VPQQQEPLTTLYYDEYDKVVEQLSNQQVKSNDKQQII (also: cyclic peptide) [SEQ ID NO: 38211]

## Output
1. 11
2. 14

====

- System: human rhabdosarcoma cells
- protocol description: pRB quantification, same procedure, rhabdosarcoma cells
- Assay type: cell-based
- assay setup: Table 9, in association with SiRNA Integrin alpha 3+RGDSPC+SiRNA Integrin beta 1+SiRNA Syndecan 1 (SEQ ID NO: 31, 32, 164 to 187)
Please go through the items and note down their pRB.
Numbers only.

Batch request: pRB per item, same order as input.
1. GTPGPASSAVSQELSAISMLYLGGGLKNYQDM (Non-cyclic GFR-binding peptide) [SEQ ID NO: 32]
2. CAAPASSSVPARLSPISILYIDAANNVVYKQYEDMVVEASG (Non-cyclic GFR-binding peptide) [SEQ ID NO: 181]
3. CTVPKPSSAPTQLSPISILYIDAANNVVYKQYEDMVVRA (Non-cyclic GFR-binding peptide) [SEQ ID NO: 187]

## Output
[7, 9, 9]
